- Tested on: Hepatocellular carcinoma (HePG2)
- experiment summary: In vitro antitumor MTT assay, HePG2
- Format: cell-based, human
- assay setup: Homo sapiens, HepG2, read-out: In vitro cytotoxicity IC50 HePG2
measured metric: IC50 (µM)
Respond numerically; units are µM and should not be typed.

molecule	unit label	reported result
C/C(=N\N=C\c1cccc(Cl)c1)c1cc2ccccc2o1 [Compound 23]	µM	86.5

Qu. Reported IC50, molecule C/C(=N\N=C\c1ccc([N+](=O)[O-])cc1)c1cc2ccccc2o1 [Compound 22] : ____
Ans. 77.4

Reference source for all entries: paper PMC7902087
